- ASSAY INFO: Plasma clearance in monkey at 0.5 umol/kg, iv
- Type: ADME, organism-based, Macaca mulatta
- EXPERIMENTAL PARAMETERS: rhesus monkey
MEASURED METRIC: clearance (mL/min/kg)

* CCC(=O)c1cc(-c2ccc(Cl)cc2)n(-c2ccc(S(N)(=O)=O)cc2)c1C | 41.7

---

- ASSAY INFO: Cmax in rat at 2 umol/kg, po
- Type: ADME, organism-based
- Design: dose 2 umol/kg, route oral
- EXPERIMENTAL PARAMETERS: in vivo
MEASURED METRIC: Cmax (ng/mL)

- CCC(=O)c1cc(-c2ccc(Cl)cc2)n(-c2ccc(S(N)(=O)=O)cc2)c1C: 41

Data provenance: ChEMBL document CHEMBL1138521
